Target: Protein-tyrosine kinase 2-beta (Homo sapiens) (UniProt Q14289)
Sequence (Q14289 whole entry, looked up): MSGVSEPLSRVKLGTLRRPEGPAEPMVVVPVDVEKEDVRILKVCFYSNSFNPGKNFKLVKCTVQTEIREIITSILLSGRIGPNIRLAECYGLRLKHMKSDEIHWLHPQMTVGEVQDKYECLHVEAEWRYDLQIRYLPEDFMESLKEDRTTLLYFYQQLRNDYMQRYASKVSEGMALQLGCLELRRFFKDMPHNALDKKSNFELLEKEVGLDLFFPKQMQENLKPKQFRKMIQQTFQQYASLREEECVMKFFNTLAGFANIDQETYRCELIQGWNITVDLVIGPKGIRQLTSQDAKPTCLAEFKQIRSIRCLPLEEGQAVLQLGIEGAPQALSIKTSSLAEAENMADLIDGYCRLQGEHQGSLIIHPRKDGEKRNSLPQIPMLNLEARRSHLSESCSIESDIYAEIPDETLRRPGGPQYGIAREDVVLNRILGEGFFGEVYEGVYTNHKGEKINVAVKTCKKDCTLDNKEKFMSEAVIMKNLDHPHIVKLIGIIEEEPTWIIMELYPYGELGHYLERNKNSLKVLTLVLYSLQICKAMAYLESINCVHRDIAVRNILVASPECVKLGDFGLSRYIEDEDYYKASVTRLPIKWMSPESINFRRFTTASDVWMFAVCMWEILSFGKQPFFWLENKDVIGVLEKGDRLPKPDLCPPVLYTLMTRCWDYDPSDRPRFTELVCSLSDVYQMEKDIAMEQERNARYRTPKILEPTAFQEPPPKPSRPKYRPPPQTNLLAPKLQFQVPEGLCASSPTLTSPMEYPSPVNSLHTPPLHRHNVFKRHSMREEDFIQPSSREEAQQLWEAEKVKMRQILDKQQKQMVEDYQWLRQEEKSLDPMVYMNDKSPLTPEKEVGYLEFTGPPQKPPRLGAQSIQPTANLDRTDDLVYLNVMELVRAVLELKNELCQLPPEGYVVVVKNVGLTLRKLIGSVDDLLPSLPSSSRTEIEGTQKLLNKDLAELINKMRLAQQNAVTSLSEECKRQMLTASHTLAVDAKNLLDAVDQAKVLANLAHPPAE
Conditions: at 1 µM
Please enter criterion met where residual activity is greater than or equal to 80%, and criterion not met where it is lower.

SAMPLE SMILES: COc1cc2ncnc(Nc3cccc(Cl)c3)c2cc1OC
CLASS ASSIGNMENT: criterion met
--
SAMPLE SMILES: O=C(c1cc2cc(O)ccc2[nH]1)c1cc2cc(O)ccc2[nH]1
CLASS ASSIGNMENT: criterion not met
--
SAMPLE SMILES: CCCC(=O)Oc1ccc2[nH]c(C(=O)c3cc4ccccc4[nH]3)cc2c1
CLASS ASSIGNMENT: criterion met
--
SAMPLE SMILES: COc1cc2nccc(Oc3ccc(NC(=O)Nc4cc(C)on4)c(Cl)c3)c2cc1OC
CLASS ASSIGNMENT: criterion not met
--
SAMPLE SMILES: O=C(Nc1nc2ccccc2n1CCN1CCOCC1)c1cccc([N+](=O)[O-])c1
CLASS ASSIGNMENT: criterion met

* * *

Biological target: Tyrosine-protein kinase CSK (Homo sapiens)
Conditions: at 1 µM
Form field: residual activity (one value per entry).

MOLECULE: Cn1c2ccccc2c2c3c(c4c5ccccc5n(CCC#N)c4c21)CNC3=O
residual activity, %: 107
--
MOLECULE: O=C(Nc1nc2ccccc2n1CCN1CCOCC1)c1cccc([N+](=O)[O-])c1
residual activity, %: 103
--
MOLECULE: COc1cc2ncnc(Nc3cccc(Cl)c3)c2cc1OC
residual activity, %: 111
--
MOLECULE: Nc1ncnc2c1c(-c1ccc(Oc3ccccc3)cc1)cn2C1CCCC1
residual activity, %: 0
--
MOLECULE: COc1cc2nccc(Oc3ccc(NC(=O)Nc4cc(C)on4)c(Cl)c3)c2cc1OC
residual activity, %: 72
--
MOLECULE: COc1cc2c(cc1OC)-c1n[nH]c(Nc3cccc(F)c3)c1C2
residual activity, %: 80
--
MOLECULE: CSc1nc(-c2ccc(F)cc2)c(-c2ccnc(NC(C)c3ccccc3)c2)[nH]1 (centres undefined)
residual activity, %: 102
--
MOLECULE: Cn1sc(=O)n(Cc2ccccc2)c1=O
residual activity, %: 92
--
MOLECULE: COc1ccc(CNC(=O)Nc2ncc([N+](=O)[O-])s2)cc1
residual activity, %: 81
--
MOLECULE: Nc1nc(Nc2ccc(S(N)(=O)=O)cc2)nn1C(=O)c1c(F)cccc1F
residual activity, %: 99
--
MOLECULE: O=C1NC(=O)C(c2cn(CCCn3ccnc3)c3ccccc23)=C1Nc1ccccc1
residual activity, %: 107
--
MOLECULE: O=C1NC(=O)c2c1c1c3ccccc3[nH]c1n1cncc21
residual activity, %: 97
--
MOLECULE: NC(=O)c1ccc(-c2nc(-c3ccc4c(c3)OCCO4)c(-c3ccccn3)[nH]2)cc1
residual activity, %: 119
--
MOLECULE: CCCC(=O)Oc1ccc2[nH]c(C(=O)c3cc4ccccc4[nH]3)cc2c1
residual activity, %: 101

* * *

Target: Tyrosine-protein kinase Lck (Homo sapiens) (UniProt P06239)
Sequence (P06239 2-509 limits assumed): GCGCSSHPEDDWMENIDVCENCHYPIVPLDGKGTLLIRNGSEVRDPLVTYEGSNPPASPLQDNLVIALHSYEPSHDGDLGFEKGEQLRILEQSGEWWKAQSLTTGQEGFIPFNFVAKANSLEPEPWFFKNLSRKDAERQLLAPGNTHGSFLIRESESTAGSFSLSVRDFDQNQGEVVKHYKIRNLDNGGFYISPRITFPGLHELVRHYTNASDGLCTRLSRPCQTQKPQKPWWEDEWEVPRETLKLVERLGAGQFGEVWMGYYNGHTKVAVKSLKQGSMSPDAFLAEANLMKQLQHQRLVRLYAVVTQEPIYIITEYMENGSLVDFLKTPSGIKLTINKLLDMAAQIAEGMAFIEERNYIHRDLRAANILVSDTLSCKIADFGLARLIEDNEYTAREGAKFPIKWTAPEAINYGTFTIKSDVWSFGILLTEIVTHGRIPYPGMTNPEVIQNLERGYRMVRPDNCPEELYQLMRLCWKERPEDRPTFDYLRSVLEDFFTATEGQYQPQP
Conditions: at 10 µM

SAMPLE SMILES: Fc1ccc(-c2nc3n(c2-c2ccncc2)CCS3)cc1
residual activity [%]: 75
--
SAMPLE SMILES: O=C1Cc2c([nH]c3ccc([N+](=O)[O-])cc23)-c2ccccc2N1
residual activity [%]: 45
--
SAMPLE SMILES: CCCCc1c(-c2ccc(O)cc2)[nH]c2nccnc12
residual activity [%]: 59
--
SAMPLE SMILES: CCCC(=O)Oc1ccc2[nH]c(C(=O)c3cc4ccccc4[nH]3)cc2c1
residual activity [%]: 76
--
SAMPLE SMILES: Nc1ncnc2[nH]nc(Nc3ccc(F)cc3)c12
residual activity [%]: 19
--
SAMPLE SMILES: O=C(CCCc1ccc(-c2ccccc2F)cc1)Nc1ccc(O)cc1
residual activity [%]: 88
